- Assayed system: UniProt P41597
- Protocol text: Calcium activity assayed on the FLIPR Tetra in HEK-Gqi5 cells stably expressing CCR2
- Format: cell-based
- Measurement conditions: FLIPR Tetra calcium assay
- Description: HEK-Gqi5 cells stably expressing CCR2 were cultured in (DMEM high glucose, 10% FBS, 1% PSA, 400 μg/ml geneticin and 50 μg/ml hygromycin. Appropriate positive control chemokines (MCP-1, MIP1A or RANTES) was used as the positive control agonist for screening compound-induced calcium activity assayed on the FLIPR^Tetra. The drug plates were prepared in 384-well microplates using the EP3 and the MuItiPROBE robotic liquid handling systems. Compounds were synthesized and tested for CCR^2 activity.
Measured metric: CCR2 % ANTAGONISM (%)

>  <Compound>
CCOC(=O)C[S+]([O-])c1ccc(Cl)cc1NS(=O)(=O)c1ccc(Cl)c(C(F)(F)F)c1 (stereo not shown)

>  <CCR2 % ANTAGONISM [%]>
79

$$$$

(I) Nc1cccc(CS(=O)(=O)c2ccc(Cl)cc2NS(=O)(=O)c2cc3ccccc3o2)[n+]1[O-]
(II) O=c1cc(C[S+]([O-])c2ccc(Cl)cc2NS(=O)(=O)c2cc3ccccc3o2)[nH]c(=O)[nH]1 (stereo not shown)
Lab note: check whether I or II shows the higher recorded CCR2 % ANTAGONISM. Indicate which entry you chose by stating its label.
I

---

- Assayed system: CCR2 (Homo sapiens (Human))
- Protocol text: Calcium activity assayed on the FLIPR Tetra in HEK-Gqi5 cells stably expressing CCR2
- Measurement conditions: FLIPR Tetra calcium assay
pIC50: −log10 of the molar value.
Measured metric: pIC50

>  <Compound>
O=S(=O)(Nc1cc(Cl)ccc1SCCc1cn[nH]c1)c1cc2ccccc2o1

>  <pIC50>
6.39

$$$$
>  <Compound>
Nc1cccc(CS(=O)(=O)c2ccccc2NS(=O)(=O)c2cc3ccccc3o2)c1

>  <pIC50>
7.39

$$$$
>  <Compound>
Nc1cc(CS(=O)(=O)c2ccc(Cl)cc2NS(=O)(=O)c2cc3ccccc3o2)ccn1

>  <pIC50>
6.44

$$$$
>  <Compound>
Nc1cccc(CSc2ccc(Cl)cc2NS(=O)(=O)c2ccccc2)c1

>  <pIC50>
5.51

$$$$
>  <Compound>
O=[N+]([O-])c1ccccc1C[S+]([O-])c1ccc(Cl)cc1NS(=O)(=O)c1cc2ccccc2o1 (centres unmarked)

>  <pIC50>
7.12

$$$$
>  <Compound>
Nc1cccc(C[S+]([O-])c2ccc(F)cc2NS(=O)(=O)c2cc3ccccc3o2)c1 (centres unmarked)

>  <pIC50>
7.42

$$$$

(P) CN(C)C(=O)CCSc1ccc(Cl)cc1NS(=O)(=O)c1ccc(Cl)cc1F
(Q) CSc1ccc(Cl)cc1NS(=O)(=O)c1cc2ccccc2o1
Lab note: check whether P or Q shows the higher recorded pIC50. Indicate which entry you chose by stating its label.
Q
(Q: 7.59, P: 6.11)

---

- Assayed system: CCR2 (Homo sapiens (Human))
- Protocol text: Calcium activity assayed on the FLIPR Tetra in HEK-Gqi5 cells stably expressing CCR2
- Measurement conditions: FLIPR Tetra calcium assay
pIC50: −log10 of the molar value.
Measured metric: pIC50

>  <Compound>
O=[N+]([O-])c1ccc(CS(=O)(=O)c2ccc(Cl)cc2NS(=O)(=O)c2cc3ccccc3o2)cc1

>  <Assayed system>
CCR2 (Homo sapiens (Human))

>  <pIC50>
5.67

$$$$

(P) O=S(=O)(Nc1cc(Cl)ccc1[S+]([O-])C(F)(F)F)c1cc2ccccc2o1 (centres unmarked)
(Q) O=S(=O)(Nc1cc(Cl)ccc1[S+]([O-])Cc1ccc[n+]([O-])c1)c1cc2ccccc2o1 (centres unmarked)
(R) O=S(=O)(Cc1c[nH]cn1)c1ccc(Cl)cc1NS(=O)(=O)c1cc2ccccc2o1
(S) O=S(=O)(Cc1ccccc1)c1ccc(Cl)cc1NS(=O)(=O)c1cc2ccccc2o1
Rank entries according to their pIC50, from the largest number down. Reply format: the labels, ordered as requested.
P, S, R, Q
(P: 7.72, S: 7.47, R: 7.09, Q: 6.19)

(I) C[S+]([O-])c1ccc(Cl)cc1NS(=O)(=O)c1ccc(Cl)c(C(F)(F)F)c1 (centres unmarked)
(II) C[S+]([O-])c1ccc(Cl)cc1NS(=O)(=O)c1cccc(Cl)c1F (centres unmarked)
Lab note: check whether I or II shows the higher recorded pIC50. Indicate which entry you chose by stating its label.
I

(a) Nc1cc(C[S+]([O-])c2ccc(Cl)cc2NS(=O)(=O)c2cc3ccccc3o2)ccn1 (centres unmarked)
(b) O=S(=O)(Nc1cc(Cl)ccc1SCc1cccnc1)c1ccc(Cl)c(C(F)(F)F)c1
(c) O=S(=O)(Nc1cc(Cl)ccc1[S+]([O-])CCc1ccccn1)c1cc2ccccc2o1 (centres unmarked)
Rank entries according to their pIC50, from the largest number down. Reply format: the labels, ordered as requested.
b, c, a
(b: 7.03, c: 6.82, a: 6.06)

(A) Nc1cccc(CSc2ccccc2NS(=O)(=O)c2cc3ccccc3o2)c1
(B) O=S(=O)(Cc1cc[nH]n1)c1ccc(Cl)cc1NS(=O)(=O)c1cc2ccccc2o1
Lab note: check whether A or B shows the higher recorded pIC50. Indicate which entry you chose by stating its label.
B
(B: 6.44, A: 6.17)

---

- Assayed system: CCR2 (Homo sapiens (Human), UniProt P41597)
- Sequence (P41597 whole entry, species assumed): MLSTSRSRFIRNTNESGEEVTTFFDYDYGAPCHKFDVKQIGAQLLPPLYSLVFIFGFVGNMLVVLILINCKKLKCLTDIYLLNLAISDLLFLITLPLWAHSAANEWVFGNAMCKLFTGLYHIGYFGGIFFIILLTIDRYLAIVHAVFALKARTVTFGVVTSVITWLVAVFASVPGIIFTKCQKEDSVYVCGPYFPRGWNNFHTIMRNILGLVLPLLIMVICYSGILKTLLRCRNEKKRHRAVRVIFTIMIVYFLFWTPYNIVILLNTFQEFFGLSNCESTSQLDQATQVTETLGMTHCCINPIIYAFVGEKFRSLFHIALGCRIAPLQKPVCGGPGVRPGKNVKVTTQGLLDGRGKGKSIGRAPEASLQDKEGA
- Protocol text: Calcium activity assayed on the FLIPR Tetra in HEK-Gqi5 cells stably expressing CCR2
- Format: cell-based
- Measurement conditions: FLIPR Tetra calcium assay
Measured metric: CCR2 % ANTAGONISM (%)

>  <Molecule>
Nc1cc(CSc2ccc(Cl)cc2NS(=O)(=O)c2cc3ccccc3o2)ccn1

>  <Assayed system>
CCR2 (Homo sapiens (Human), UniProt P41597)

>  <Unit text>
%

>  <Reading>
100

$$$$
>  <Molecule>
CC(=O)NCCS(=O)(=O)c1ccc(Cl)cc1NS(=O)(=O)c1ccc(Cl)c(C(F)(F)F)c1

>  <Assayed system>
CCR2 (Homo sapiens (Human), UniProt P41597)

>  <Unit text>
%

>  <Reading>
98

$$$$
>  <Molecule>
O=S(=O)(Cc1cccc(O)c1)c1ccc(Cl)cc1NS(=O)(=O)c1cc2ccccc2o1

>  <Assayed system>
CCR2 (Homo sapiens (Human), UniProt P41597)

>  <Unit text>
%

>  <Reading>
96

$$$$
>  <Molecule>
NC(=O)CC[S+]([O-])c1ccc(Cl)cc1NS(=O)(=O)c1ccc(Cl)c(C(F)(F)F)c1 (centres unmarked)

>  <Assayed system>
CCR2 (Homo sapiens (Human), UniProt P41597)

>  <Unit text>
%

>  <Reading>
99

$$$$
>  <Molecule>
CSc1ccc(Cl)cc1NS(=O)(=O)c1ccc(C(F)(F)F)c([N+](=O)[O-])c1

>  <Assayed system>
CCR2 (Homo sapiens (Human), UniProt P41597)

>  <Unit text>
%

>  <Reading>
90

$$$$
>  <Molecule>
O=[N+]([O-])c1ccc(CSc2ccc(Cl)cc2NS(=O)(=O)c2cc3ccccc3o2)cc1

>  <Assayed system>
CCR2 (Homo sapiens (Human), UniProt P41597)

>  <Unit text>
%

>  <Reading>
82

$$$$
>  <Molecule>
C[S+]([O-])c1ccc(Cl)cc1NS(=O)(=O)c1ccc(Cl)c(C(F)(F)F)c1 (centres unmarked)

>  <Assayed system>
CCR2 (Homo sapiens (Human), UniProt P41597)

>  <Unit text>
%

>  <Reading>
78

$$$$
>  <Molecule>
Cc1n[nH]c(C)c1CC[S+]([O-])c1ccc(Cl)cc1NS(=O)(=O)c1cc2ccccc2o1 (centres unmarked)

>  <Assayed system>
CCR2 (Homo sapiens (Human), UniProt P41597)

>  <Unit text>
%

>  <Reading>
83

$$$$
>  <Molecule>
O=S(=O)(Nc1cc(Cl)ccc1[S+]([O-])Cc1ncc[nH]1)c1cc2ccccc2o1 (centres unmarked)

>  <Assayed system>
CCR2 (Homo sapiens (Human), UniProt P41597)

>  <Unit text>
%

>  <Reading>
108

$$$$
>  <Molecule>
Nc1cccc(C[S+]([O-])c2ccc(Cl)cc2NS(=O)(=O)c2ccc(Cl)cc2F)c1 (centres unmarked)

>  <Assayed system>
CCR2 (Homo sapiens (Human), UniProt P41597)

>  <Unit text>
%

>  <Reading>
95

$$$$
>  <Molecule>
Nc1nc(C[S+]([O-])c2ccc(Cl)cc2NS(=O)(=O)c2cc3ccccc3o2)cs1 (centres unmarked)

>  <Assayed system>
CCR2 (Homo sapiens (Human), UniProt P41597)

>  <Unit text>
%

>  <Reading>
100

$$$$
>  <Molecule>
C[S+]([O-])c1ccc(Cl)cc1NS(=O)(=O)c1cc2ccccc2o1 (centres unmarked)

>  <Assayed system>
CCR2 (Homo sapiens (Human), UniProt P41597)

>  <Unit text>
%

>  <Reading>
98

$$$$
>  <Molecule>
O=S(=O)(Nc1cc(Cl)ccc1[S+]([O-])C(F)(F)F)c1cc2ccccc2o1 (centres unmarked)

>  <Assayed system>
CCR2 (Homo sapiens (Human), UniProt P41597)

>  <Unit text>
%

>  <Reading>
89

$$$$
>  <Molecule>
CCCn1cnc(CSc2ccc(Cl)cc2NS(=O)(=O)c2cc3ccccc3o2)c1

>  <Assayed system>
CCR2 (Homo sapiens (Human), UniProt P41597)

>  <Unit text>
%

>  <Reading>
79

$$$$
>  <Molecule>
O=S(=O)(Cc1cccnc1F)c1ccc(Cl)cc1NS(=O)(=O)c1cc2ccccc2o1

>  <Assayed system>
CCR2 (Homo sapiens (Human), UniProt P41597)

>  <Unit text>
%

>  <Reading>
88

$$$$
>  <Molecule>
CS(=O)(=O)c1ccc(Cl)cc1NS(=O)(=O)c1ccc(Cl)cc1F

>  <Assayed system>
CCR2 (Homo sapiens (Human), UniProt P41597)

>  <Unit text>
%

>  <Reading>
98

$$$$
>  <Molecule>
O=[N+]([O-])c1cccc(CS(=O)(=O)c2ccccc2NS(=O)(=O)c2cc3ccccc3o2)c1

>  <Assayed system>
CCR2 (Homo sapiens (Human), UniProt P41597)

>  <Unit text>
%

>  <Reading>
83

$$$$
